Endpoint: melting point

{"columns": ["Compound", "Recorded value"],
 "data": [
  ["COc1cc(Nc2nccc(C(=O)c3ccccc3)n2)cc(OC)c1OC", "165 °C"],
  ["Oc1ccc2c(c1O)Cc1cccc3c1C2CNC3 (stereo unspecified)", "175 to 176 °C"],
  ["CNc1nc(-c2cncc(C#Cc3cccnc3)c2)c2cc(OC)c(OC)cc2n1", "208 to 211 °C"],
  ["C=Cc1c2c(c(C)c(C)c1N1CCN(c3ccc(OC)cc3)CC1)OC(C)(C)C2=O", "147 to 148 °C"],
  ["CC(=O)Cc1cc2[nH]c(=O)oc2cc1Br", "160 to 162 °C"],
  ["O=[N+]([O-])c1ccc2nc3c(nc2c1)CCCC3", "175 to 178 °C"],
  ["CC1=C(C(=O)OC(C)C)C(c2cccc([N+](=O)[O-])c2)C(S(=O)(=O)N(C)C)=C(C)N1 (stereo unspecified)", "136 to 138 °C"],
  ["CCCn1nnc(-c2cnc3ccccn3c2=O)n1", "115 to 116 °C"],
  ["COc1ccc(CCNS(=O)(=O)c2ccc(N)cc2)cc1", "144 to 146 °C"],
  ["CC(Cl)(Cl)C1(O)NC(=O)C(=O)N1", "220 °C"],
  ["CCOc1ccc(-c2nc3n(c2-c2ccncc2)CCC3)cc1", "133 to 135 °C"],
  ["COc1ccc(F)cc1Oc1c(Cl)ncnc1NS(=O)(=O)c1ccc(C(F)(F)F)cc1", "185 to 186 °C"],
  ["Cn1c(=O)c2ncn(CCCCCC(=O)O)c2n(C)c1=O", "177 °C"],
  ["CCC(=O)c1ccc(CN2C(=O)c3ccccc3C2=O)s1", "104 to 106 °C"],
  ["COc1cc(Nc2nc(-c3ccc(Cl)cc3)cc(C(F)(F)F)n2)ccc1-n1cnc(C)c1", "202 to 204 °C"],
  ["NC1(C(=O)O)CC(OC(=O)Nc2ccccc2F)C2C(C(=O)O)C21 (stereo unspecified)", "232 to 233 °C"],
  ["CCOC(=O)C1CN(S(C)(=O)=O)CCN1CC=CC(=O)Nc1cc2c(Nc3ccc(F)c(Cl)c3)ncnc2cc1OCC1CC1 (stereo unspecified)", "170 to 173 °C"],
  ["CCOc1c(C#N)oc2c3ccccc3n(-c3ccccc3)c12", "121 to 122 °C"],
  ["CCN(CC)c1nc(C)nc2nc(-c3ccncc3)[nH]c12", "228 to 230 °C"],
  ["O=C(Cl)c1c(Cl)cc([N+](=O)[O-])cc1Cl", "63 to 65 °C"],
  ["CCOP(=O)(OCC)C1CCNc2ccc(C(F)(F)F)cc21 (stereo unspecified)", "94 °C"]
]}

----------
Examples of molecules with documented melting point follow.
Endpoint: melting point

{"columns": ["Molecule", "Recorded value"],
 "data": [
  ["CCOC(=O)C1=C(C)NC(C)=C(C(=O)OCCN2CCN(C(c3ccccc3)c3ccccc3)CC2)C1c1cccc([N+](=O)[O-])c1 (stereo unspecified)", "80 to 82 °C"],
  ["O=C(Nc1ccc(C(F)(F)F)cc1)Nc1ccc2c(c1)OC(F)(F)O2", "195 to 200 °C"],
  ["Cc1cccc(C(=O)Nc2cn(C3CCCCO3)nc2C(=O)NCC(F)(F)F)n1 (stereo unspecified)", "184 to 185 °C"],
  ["O=S(=O)(Nc1ccc(C2COc3cc(O)c(O)cc3C2)cc1)c1ccccc1 (stereo unspecified)", "152 to 154 °C"],
  ["COC(=O)c1cc([N+](=O)[O-])cn1C", "122 to 124 °C"],
  ["CC(C)n1nc(-c2sc(C(=O)NCCN3CCOCC3)nc2-c2ccccc2)ccc1=O", "196 to 198 °C"],
  ["COC(=O)C1(O)C(=O)Nc2ccc(C(F)(F)F)cc2CC1c1ccc(OC)cc1 (stereo unspecified)", "196 to 198 °C"],
  ["Cc1ncsc1C(O)c1cccc(O)c1 (stereo unspecified)", "181 to 184 °C"],
  ["CCOC(=O)C1CC(O)c2cc3c(cc2C1c1cc(OC)c(OC)c(OC)c1)OCO3 (stereo unspecified)", "151 to 152 °C"],
  ["Cc1oc(-c2ccccc2)nc1CCc1nc(COc2cccc(CC(=O)O)c2)co1", "127 to 128 °C"],
  ["CCOC(=O)/C=C/c1cn(-c2ccc(C(F)(F)F)cn2)nc1C", "131 to 132 °C"],
  ["Oc1nc2ccc(Br)cc2[nH]1", "305 to 307 °C"],
  ["CC1(C)OCC(CCn2cnc3c(N)nc(N)nc32)CO1", "202 to 204 °C"],
  ["CCCCc1c2c(nc3c1CCc1cc4nc(C#N)c(N)cc4nc1-3)C(=O)CCC2", "> 300 °C"],
  ["C[C@@H](CSc1nc2ccccc2cc1-c1ccccc1)NC(=O)OC(C)(C)C", "86 to 87 °C"],
  ["CCOC(=O)c1cc(-c2ccc(OC)cc2)nn(Cc2ccc(Cl)cc2Cl)c1=O", "136 °C"],
  ["O=C1C2CCCC2=Nc2ccccc2N1Cc1ccc2ccccc2c1 (stereo unspecified)", "164 to 167 °C"],
  ["Cc1[nH]cnc1CSCCNC1=C([N+](=O)[O-])CCN1", "208 °C"],
  ["Cc1cccc(N2CCN(c3ccc(Oc4ccccc4)nn3)CC2)c1", "123 °C"],
  ["Oc1c(Br)cnc2ccccc12", "286 to 287 °C"],
  ["CC(C)NCC(O)COc1ccc2ncsc2c1 (stereo unspecified)", "132 to 134 °C"]
]}

Data provenance: a melting point compilation (Tetko et al.; mined from patent text by program, amines drawn as free bases though some values may be those of a salt)
